Test system: IGROV1 ovarian
Assay: NCI tumour cell line growth inhibition, 48 h; in the data active means GI50 below about 0.43 µM; inactive means the rest
In this exercise, the only acceptable responses are y = active, n = inactive

Lookup: Hi team, can someone confirm the assay call for O=C(O[C@H]1CN[C@H](C#Cc2cc3ncnc(Nc4ccc5c(ccn5Cc5cc(F)ccc5F)c4)c3s2)C1)N1CCOCC1 ?
Found: n

Lookup: Hi team, can someone confirm the assay call for CC(C)c1ccc(C(=O)Nc2nc3ccc(O)cc3s2)cc1 ?
Found: y

Lookup: Hi team, can someone confirm the assay call for O=C1Nc2ccc(C(=O)c3ccco3)cc2/C1=C/c1cc(Cl)c(O)c(Cl)c1 ?
Found: n

Lookup: Hi team, can someone confirm the assay call for COc1cc(/C=C/C(=O)CC(=O)/C=C/c2cc(OC)c(OC)c(OC)c2)cc(OC)c1OC ?
Found: n

Lookup: Hi team, can someone confirm the assay call for O=Cc1ccc(-c2cc(C=O)c(-c3cccs3)[nH]2)s1 ?
Found: n

Lookup: Hi team, can someone confirm the assay call for CCOC(=O)C(Cc1c[nH]c2ccc(N)cc12)(NC(C)=O)C(=O)OCC ?
Found: n

Lookup: Hi team, can someone confirm the assay call for COC(=O)c1cc2c(cc1Cl)SC(N(N(C)C)S(=O)(=O)c1ccc(Br)s1)=NS2(=O)=O ?
Found: n

Lookup: Hi team, can someone confirm the assay call for CC12OC(c3ccccc3)=CC(c3ccc(Cl)cc3)=C1C(c1ccccc1)=CC2=O (stereo not given) ?
Found: n

Lookup: Hi team, can someone confirm the assay call for COc1cc(Nc2nccc(Nc3ccc4c(C)[nH]nc4c3)n2)cc(OC)c1OC ?
Found: n

Lookup: Hi team, can someone confirm the assay call for C=C1C(=O)O[C@H]2[C@H]1CC/C(CNC(=O)c1cc3cc(OC)ccc3[nH]1)=C\CC[C@@]1(C)O[C@@H]21 ?
Found: n

----------
System: SNB-75 CNS
Test: NCI tumour cell line growth inhibition, 48 h; in the data active = GI50 below about 0.43 µM; inactive = the rest
In this exercise, the only acceptable responses are true (1) for active, false (0) for inactive

Known results for molecules:
# molecule, assayedTarget, cat
records = [
    ("CC1=C2[C@@H](CC1)[C@]1(C)O[C@@](C3CCCCC3)(C[C@H]1OC(=O)CO)[C@H]2OC(=O)/C=C/c1ccccc1", "SNB-75 CNS", "false (0)"),
    ("CCN1CCN(C(=O)[C@]23CC[C@@H](C)[C@H](C)[C@@H]2C2=CC[C@@H]4[C@@]5(C)C/C(=C/c6ccncc6)C(=O)C(C)(C)[C@@H]5CC[C@@]4(C)[C@]2(C)CC3)CC1", "SNB-75 CNS", "false (0)"),
    ("ClCc1cccc(Cn2cnc3c(NC45CC6CC(CC(C6)C4)C5)ncnc32)c1", "SNB-75 CNS", "false (0)"),
    ("O=c1c2c(nc3n1CCS3)[nH]c1ccccc12", "SNB-75 CNS", "false (0)"),
    ("NOCC(=O)O", "SNB-75 CNS", "false (0)"),
    ("CO[C@@H]1/C=C\\C=C(/C)C(=O)NC2=CC(=O)C(NCCN(C)C)=C(C[C@@H](C)C[C@@H](OC)[C@@H](O)[C@H](C)/C=C(\\C)[C@H]1OC(N)=O)C2=O", "SNB-75 CNS", "true (1)"),
    ("COc1ccc(/C=N\\NC(=O)CN2CCN(c3cc4c(cc3F)c(=O)c(C(=O)N/N=C/c3ccc(OC)c(OC)c3)cn4C3CC3)CC2)cc1OC", "SNB-75 CNS", "false (0)"),
    ("CC(=O)[O-].CC(=O)[O-].[Pt+2].c1cscn1.c1cscn1", "SNB-75 CNS", "false (0)"),
]

Lookup: Hi team, can someone confirm the assay call for Cc1nc2sc(C(=O)Nc3cccc(Cl)c3C)c(N)c2cc1C(=O)/C=C/c1ccccc1 ?
Found: true (1)

Lookup: Hi team, can someone confirm the assay call for Cn1c([N+](=O)[O-])cnc1/C=C1\Oc2ccccc2C1=O ?
Found: false (0)

Lookup: Hi team, can someone confirm the assay call for CSc1ccc(C2=NN(C(=O)c3ccc(F)cc3)C(c3ccc(F)cc3)C2)cc1 (configuration not stated) ?
Found: false (0)

Lookup: Hi team, can someone confirm the assay call for COc1cc(C(=O)/C(C)=C/c2c[nH]c3ccccc23)cc(OC)c1OC ?
Found: true (1)

Data credit: PubChem BioAssay (NCI)
